species: Rattus norvegicus; assay: Open TG-GATES - Regimen: Single; assay type: toxicity, organism-based, Sprague-Dawley; set-up: regimen Single, gender Male, age 6 weeks; details: in vivo, po, 0 mg/kg, 24 h, tissue Plasma, route gavage, dose level Control
The following compounds are shown together with reported gamma-GTP values.
Write the value in IU/L as a bare number.

Example results:
compound	result
C1CCC(C(CC2CCCCN2)C2CCCCC2)CC1 (stereo not drawn)	1
CC(CN1c2ccccc2Sc2ccccc21)N(C)C (stereo not drawn)	1.4

Now turn to the next compound.
Lab book: gamma-GTP of CN1C(C(=O)Nc2ccccn2)=C(O)c2sc(Cl)cc2S1(=O)=O noted as 1
